Dear all, I have gathered published IC50 values for Vascular endothelial growth factor receptor 2 (Homo sapiens, UniProt P35968); the list follows.

Worked examples, 3 molecules total:
O=C(c1cccc(NS(=O)(=O)c2ccccc2F)c1F)c1c[nH]c2ncncc12: ≤ 10 µM
COc1cccc(-c2cn(-c3ccccc3)c3ncnc(N)c23)c1: > 1 µM
COc1ccc(-n2ccc(C)c(-c3ccc4nc(N)ncc4c3)c2=O)cc1: > 5 µM

Attention now shifts to the item below.
stdin: So what's the measured IC50 for this one? COc1cc2nccc(N(C)c3ccc4c(C(=O)Nc5ccc(Cl)cc5)cccc4c3)c2cc1OC
stdout: > 1.4 µM

* * *

Dear all, I have gathered published IC50 values for Vascular endothelial growth factor receptor 2 (Homo sapiens, UniProt P35968); the list follows.

CNc1ncc(C(=O)Nc2cc(C(=O)Nc3cccc(C(F)(F)F)c3C)ccc2C)c(OC)n1: > 25 µM
CC(C)S(=O)(=O)c1ccc2nccc(Nc3n[nH]c4ccc(F)cc34)c2c1: > 5 µM

stdin: So what's the measured IC50 for this one? Cc1ccc(-n2cc(C(=O)NOCc3ccccc3F)c(-c3ccccc3)n2)cc1
stdout: > 25 µM

stdin: Record: COc1ccc(C(N)=O)cc1COc1ccc(Cl)cc1
stdout: > 50 µM

stdin: Record: O=C(NCCCN1CCOCC1)c1cc(Oc2ccc(NC(=O)c3cn(-c4ccc(F)c(Cl)c4)c4ncccc4c3=O)cc2F)ccn1
stdout: > 100 µM

* * *

Dear all, I have gathered published IC50 values for Vascular endothelial growth factor receptor 2 (Homo sapiens, UniProt P35968); the list follows.
readoutKind: IC50 (µM)

Worked examples, 2 compounds total:
CO/N=C/c1c(N)ncnc1Oc1ccc(NC(=O)Nc2ccccc2)c(Cl)c1: 0.003
Cn1cc(NC(=O)c2cccc(NS(=O)(=O)c3ccc(Cl)cc3)c2)cn1: 17.4

(1) Cn1ccc2ncnc(Oc3ccc(NC(=O)Nc4cnn(CC(F)(F)F)c4)c(Cl)c3)c21
(2) CNc1nccc(-c2cccnc2Oc2ccc(Nc3nc4ccccc4o3)c3ccccc23)n1
stdin: # returns the entry with the larger IC50; inputs 1 and 2 Identify your selection by its label.
stdout: 2

* * *

Dear all, I have gathered published pIC50 values for Vascular endothelial growth factor receptor 2 (Homo sapiens); the list follows.
pIC50: −log10 of the molar value.
readoutKind: pIC50

Cc1ccc(C(/C=C/c2ccc(F)cc2)=N\Nc2nncc3ccccc23)cc1: 9.15
COCCN1CCN(c2ccc(-c3cnn4c(N)c(-c5ccc(NC(=O)OCC(C)C)cc5)cnc34)cc2)CC1: 5.66
Cc1ccc(-n2cc(NC(=O)c3ccc(NS(=O)(=O)c4ccccc4)cc3)cn2)cc1: 5.16
COCCOc1cc2ncnc(Nc3cccc(B(O)O)c3)c2cc1OCCOC: 6.72
COc1cc2ncnc(Nc3cccc(Br)c3)c2cc1OCCCC(=O)NO: 6.36

(A) N#Cc1ccc2c(c1)NC(=O)/C2=C(\Nc1ccc(CN2CCCCC2)cc1)c1ccccc1
(B) Cc1ccc(NC(=O)Cn2cc(-c3ccc4c(NC(=O)c5cnn(C)c5)n[nH]c4c3)cn2)cc1C(F)(F)F
stdin: # returns the entry with the larger pIC50; inputs A and B Identify your selection by its label.
stdout: B
(B: 9.14, A: 6.61)

(I) COc1cc2nccc(Oc3ccc4c(C(=O)Nc5ccc(Cl)cc5)cccc4c3)c2cc1C(N)=O
(II) Cc1ccc(C(=O)Nc2ccc(C(F)(F)F)cc2)cc1Nc1ncccc1-c1ccncn1
(III) O=C1Nc2ccc(Br)cc2/C1=C/c1[nH]cc2c1CCOC2=O
(IV) COc1cccc(NC(=O)Cc2cccc(Oc3ncnc4cc(OC)c(OC)cc34)c2)c1
(V) Cc1csc(C(=O)c2ccc3c(c2)c2c4c(c5c(c2n3CC(C)C)CCc2nn(C)cc2-5)C(=O)NC4)c1
stdin: Rank entries according to their pIC50, from the largest number down. Please respond by ranking the labels in the order requested.
stdout: I, V, II, IV, III
(I: 9.70, V: 7.96, II: 6.75, IV: 6.00, III: 4.96)

(a) NC1CCN(Cc2ccn3ncnc(Nc4ccc(F)c(Cl)c4)c23)CC1
(b) O=C(Nc1cc(-c2cccnc2)cc(C(F)(F)F)c1)Nc1nccs1
(c) CCNC(=O)c1cccc2cc(Oc3ccnc4cc(OC)c(OC)cc34)ccc12
stdin: rank_up(items): orders items by reported pIC50 in ascending numerical order. Please respond by ranking the labels in the order requested.
stdout: a, b, c

(1) Cc1n[nH]c2nccc(-c3ccc(NC(=O)Nc4ccc(N(C)C)cc4)cc3)c12
(2) Cc1cccc2cc(/C=C/C(=O)c3ccc(Br)s3)c(Cl)nc12
(3) CCc1cc2c(cc1N1CCN(C3CC3)CC1)C(C)(C)c1[nH]c3cc(C#N)ccc3c1C2=O
(4) COc1cc2c(cc1OC)Nc1ncnc(NCc3ccccc3)c1NC2
(5) Cc1ccc2cc(/C=C/C(=O)c3ccc(Br)s3)c(Cl)nc2c1
stdin: rank_up(items): orders items by reported pIC50 in ascending numerical order. Please respond by ranking the labels in the order requested.
stdout: 1, 3, 4, 2, 5
